ASSAY_SUMMARY: AUC (0 to infinity) in Sprague-Dawley rat at 10 mg/kg, po measured after 24 hrs by LC-MS/MS analysis
Format: ADME, organism-based
Parameters: route oral, dose 10 mg/kg, time 24 hrs
CONDITION_DETAILS: in vivo

SMILES | AUC(0-inf)
C[C@@H](Nc1ccc2[nH]nc(/C=C/c3ccccn3)c2c1)c1cc(F)cc(F)c1 | 1.62 µM·h

----------
ASSAYED_SYSTEM: Activated CDC42 kinase 1 (Homo sapiens, UniProt Q07912)
Sequence (Q07912 whole entry, the tested form may be a part): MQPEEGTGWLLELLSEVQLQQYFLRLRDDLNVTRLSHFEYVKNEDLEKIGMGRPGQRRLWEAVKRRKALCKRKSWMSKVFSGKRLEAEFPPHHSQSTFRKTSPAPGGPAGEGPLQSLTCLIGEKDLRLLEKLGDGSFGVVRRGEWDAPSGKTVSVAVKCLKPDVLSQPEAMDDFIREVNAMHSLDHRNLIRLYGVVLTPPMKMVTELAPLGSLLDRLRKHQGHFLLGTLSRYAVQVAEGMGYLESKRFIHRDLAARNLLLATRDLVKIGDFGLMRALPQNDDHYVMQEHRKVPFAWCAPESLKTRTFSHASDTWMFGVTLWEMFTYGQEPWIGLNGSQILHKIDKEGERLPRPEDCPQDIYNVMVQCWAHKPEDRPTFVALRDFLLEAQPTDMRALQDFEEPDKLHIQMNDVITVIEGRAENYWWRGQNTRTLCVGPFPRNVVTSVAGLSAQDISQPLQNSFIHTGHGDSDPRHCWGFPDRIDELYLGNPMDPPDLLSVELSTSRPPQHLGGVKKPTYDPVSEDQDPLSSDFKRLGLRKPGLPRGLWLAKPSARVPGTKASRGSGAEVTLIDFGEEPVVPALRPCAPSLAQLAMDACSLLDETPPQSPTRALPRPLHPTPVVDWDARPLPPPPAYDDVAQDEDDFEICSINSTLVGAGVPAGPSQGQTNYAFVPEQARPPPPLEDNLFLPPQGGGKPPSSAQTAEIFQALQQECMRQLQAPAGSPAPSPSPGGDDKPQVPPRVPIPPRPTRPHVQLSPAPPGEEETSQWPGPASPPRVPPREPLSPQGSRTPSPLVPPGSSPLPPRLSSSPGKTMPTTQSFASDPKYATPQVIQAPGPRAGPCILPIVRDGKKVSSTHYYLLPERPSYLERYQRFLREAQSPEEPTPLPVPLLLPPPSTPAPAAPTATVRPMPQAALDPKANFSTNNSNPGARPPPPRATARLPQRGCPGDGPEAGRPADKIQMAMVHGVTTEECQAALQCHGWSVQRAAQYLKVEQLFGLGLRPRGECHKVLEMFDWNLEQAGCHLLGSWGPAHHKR
ASSAY_SUMMARY: Binding affinity to wild-type human partial length TNK2 (S159 to D474 residues) expressed in bacterial expression system by Kinomescan method relative to control
ATTRIBUTE_MEASURED: Kd (nM)

SMILES | ASSAYED_SYSTEM | MEASUREMENT_UNIT | MEASURED_NUMBER
C[C@@H](Nc1ccc2[nH]nc(/C=C/c3ccccn3)c2c1)c1cc(F)cc(F)c1 | Activated CDC42 kinase 1 (Homo sapiens, UniProt Q07912) | nM | 21

----------
ASSAY_SUMMARY: Cmax in Sprague-Dawley rat at 10 mg/kg, po measured after 24 hrs by LC-MS/MS analysis
Type: ADME, organism-based
Set-up: route oral, dose 10 mg/kg, time 24 hrs
CONDITION_DETAILS: in vivo

SMILES | MEASUREMENT_UNIT | Cmax
C[C@@H](Nc1ccc2[nH]nc(/C=C/c3ccccn3)c2c1)c1cc(F)cc(F)c1 | nM | 360

----------
ASSAYED_SYSTEM: Tyrosine-protein kinase JAK1 (Homo sapiens, UniProt P23458)
Sequence (P23458 whole entry, the tested form may be a part): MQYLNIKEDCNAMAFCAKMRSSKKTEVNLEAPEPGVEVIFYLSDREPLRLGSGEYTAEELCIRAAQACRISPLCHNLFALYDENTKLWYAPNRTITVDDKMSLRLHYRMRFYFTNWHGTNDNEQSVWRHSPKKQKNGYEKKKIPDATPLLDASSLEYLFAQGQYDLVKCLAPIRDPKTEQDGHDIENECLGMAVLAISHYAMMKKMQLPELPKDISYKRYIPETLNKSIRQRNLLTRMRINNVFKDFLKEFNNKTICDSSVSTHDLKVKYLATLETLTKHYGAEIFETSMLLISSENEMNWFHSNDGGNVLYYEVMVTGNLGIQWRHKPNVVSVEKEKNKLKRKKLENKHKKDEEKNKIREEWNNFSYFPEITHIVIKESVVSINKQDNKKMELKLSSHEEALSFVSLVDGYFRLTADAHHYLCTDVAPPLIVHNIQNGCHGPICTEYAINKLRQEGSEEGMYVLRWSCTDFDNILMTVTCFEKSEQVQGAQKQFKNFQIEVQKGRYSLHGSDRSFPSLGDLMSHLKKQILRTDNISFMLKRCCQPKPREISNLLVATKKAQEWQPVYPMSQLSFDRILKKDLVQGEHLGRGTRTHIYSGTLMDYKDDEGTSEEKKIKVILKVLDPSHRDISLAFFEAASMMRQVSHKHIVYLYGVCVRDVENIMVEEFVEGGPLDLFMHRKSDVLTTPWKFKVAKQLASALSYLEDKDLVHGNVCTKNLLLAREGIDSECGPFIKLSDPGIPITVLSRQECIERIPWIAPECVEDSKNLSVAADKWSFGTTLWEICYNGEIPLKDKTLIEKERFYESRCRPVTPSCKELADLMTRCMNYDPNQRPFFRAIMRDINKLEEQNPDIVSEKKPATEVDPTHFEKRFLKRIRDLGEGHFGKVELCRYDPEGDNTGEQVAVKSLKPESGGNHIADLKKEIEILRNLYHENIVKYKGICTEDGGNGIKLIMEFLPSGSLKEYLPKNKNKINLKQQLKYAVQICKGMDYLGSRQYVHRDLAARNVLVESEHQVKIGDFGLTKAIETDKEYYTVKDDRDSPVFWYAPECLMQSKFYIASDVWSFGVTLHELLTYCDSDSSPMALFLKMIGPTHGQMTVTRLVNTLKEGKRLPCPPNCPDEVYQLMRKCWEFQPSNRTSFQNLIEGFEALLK
ASSAY_SUMMARY: Binding affinity to wild-type human partial length JAK1 JH1 catalytic domain (V856 to K1154 residues) expressed in bacterial expression system by Kinomescan method relative to control
pKd: −log10 of the molar value.
ATTRIBUTE_MEASURED: pKd

SMILES | MEASURED_NUMBER
C[C@@H](Nc1ccc2[nH]nc(/C=C/c3ccccn3)c2c1)c1cc(F)cc(F)c1 | 6.89

----------
ASSAYED_SYSTEM: UniProt O15146
Sequence (O15146 whole entry): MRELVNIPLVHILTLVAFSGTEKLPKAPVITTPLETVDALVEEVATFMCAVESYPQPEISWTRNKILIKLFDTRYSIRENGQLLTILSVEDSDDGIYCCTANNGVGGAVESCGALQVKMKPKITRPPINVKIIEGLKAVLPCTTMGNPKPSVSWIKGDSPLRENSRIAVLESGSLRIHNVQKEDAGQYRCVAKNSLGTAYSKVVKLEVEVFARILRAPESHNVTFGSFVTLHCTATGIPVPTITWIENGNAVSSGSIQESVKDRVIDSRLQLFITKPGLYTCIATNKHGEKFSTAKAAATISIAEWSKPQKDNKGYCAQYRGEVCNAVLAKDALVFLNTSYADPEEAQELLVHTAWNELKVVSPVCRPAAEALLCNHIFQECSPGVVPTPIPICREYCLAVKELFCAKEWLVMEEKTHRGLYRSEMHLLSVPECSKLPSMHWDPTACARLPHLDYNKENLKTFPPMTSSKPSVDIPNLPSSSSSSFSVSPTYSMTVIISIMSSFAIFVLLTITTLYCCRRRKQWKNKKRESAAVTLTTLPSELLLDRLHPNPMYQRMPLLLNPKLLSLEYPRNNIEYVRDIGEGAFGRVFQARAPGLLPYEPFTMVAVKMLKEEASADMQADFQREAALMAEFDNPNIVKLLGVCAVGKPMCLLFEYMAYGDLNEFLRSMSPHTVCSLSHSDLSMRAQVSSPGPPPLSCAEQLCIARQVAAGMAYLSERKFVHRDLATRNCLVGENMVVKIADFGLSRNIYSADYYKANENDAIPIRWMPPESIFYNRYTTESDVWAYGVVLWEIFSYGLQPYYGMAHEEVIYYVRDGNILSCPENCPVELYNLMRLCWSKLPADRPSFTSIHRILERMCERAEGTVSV
pKd: −log10 of the molar value.
ATTRIBUTE_MEASURED: pKd

SMILES | MEASURED_NUMBER
C[C@@H](Nc1ccc2[nH]nc(/C=C/c3ccccn3)c2c1)c1cc(F)cc(F)c1 | 6.96

----------
ASSAYED_SYSTEM: High affinity nerve growth factor receptor (Homo sapiens)
Sequence (P04629 whole entry): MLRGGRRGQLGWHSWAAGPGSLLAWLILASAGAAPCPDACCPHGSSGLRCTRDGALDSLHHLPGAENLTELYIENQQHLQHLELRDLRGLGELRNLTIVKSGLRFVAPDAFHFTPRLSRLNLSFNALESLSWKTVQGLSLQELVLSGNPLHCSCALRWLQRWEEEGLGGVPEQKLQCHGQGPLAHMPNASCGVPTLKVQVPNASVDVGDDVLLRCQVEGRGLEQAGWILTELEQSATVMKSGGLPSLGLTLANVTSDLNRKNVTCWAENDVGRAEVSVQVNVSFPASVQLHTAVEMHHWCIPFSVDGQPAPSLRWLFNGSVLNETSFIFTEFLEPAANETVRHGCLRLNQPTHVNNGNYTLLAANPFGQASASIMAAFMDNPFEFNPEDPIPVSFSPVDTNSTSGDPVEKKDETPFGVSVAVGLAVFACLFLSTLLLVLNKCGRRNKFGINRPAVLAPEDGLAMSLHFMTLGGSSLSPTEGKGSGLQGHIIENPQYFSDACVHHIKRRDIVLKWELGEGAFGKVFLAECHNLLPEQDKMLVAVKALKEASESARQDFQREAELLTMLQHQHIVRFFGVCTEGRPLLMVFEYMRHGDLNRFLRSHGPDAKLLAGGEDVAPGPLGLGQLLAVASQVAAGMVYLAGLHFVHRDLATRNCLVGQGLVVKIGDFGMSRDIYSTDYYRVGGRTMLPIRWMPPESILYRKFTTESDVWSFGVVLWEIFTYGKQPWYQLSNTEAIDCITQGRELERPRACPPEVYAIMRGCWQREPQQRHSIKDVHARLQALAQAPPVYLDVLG
Threshold 10 nM: IC50 strictly smaller gives MET, otherwise NOT MET.

SMILES | ASSAYED_SYSTEM | QUALITATIVE_LABEL
Cc1cc(F)cc(CNc2ccc3[nH]nc(/C=C/c4ccccn4)c3c2)c1 | High affinity nerve growth factor receptor (Homo sapiens) | NOT MET
Fc1cc(Cl)cc(CNc2ccc3[nH]nc(/C=C/c4ccccn4)c3c2)c1 | High affinity nerve growth factor receptor (Homo sapiens) | MET
CN(c1cc(F)cc(F)c1)c1ccc2[nH]nc(/C=C/c3ccccn3)c2c1 | High affinity nerve growth factor receptor (Homo sapiens) | NOT MET
Fc1cc(F)cc(CCc2ccc3[nH]nc(/C=C/c4ccccn4)c3c2)c1 | High affinity nerve growth factor receptor (Homo sapiens) | MET
O=C(Nc1cc(F)cc(F)c1)c1ccc2[nH]nc(/C=C/c3ccccn3)c2c1 | High affinity nerve growth factor receptor (Homo sapiens) | NOT MET
Fc1ccccc1CNc1ccc2[nH]nc(/C=C/c3ccccn3)c2c1 | High affinity nerve growth factor receptor (Homo sapiens) | MET
Fc1cc(F)cc(Oc2ccc3[nH]nc(/C=C/c4ccccn4)c3c2)c1 | High affinity nerve growth factor receptor (Homo sapiens) | NOT MET
Fc1cc(F)cc(Cc2ccc3[nH]nc(/C=C/c4ccccn4)c3c2)c1 | High affinity nerve growth factor receptor (Homo sapiens) | MET
CN(Cc1ccc2[nH]nc(/C=C/c3ccccn3)c2c1)c1cc(F)cc(F)c1 | High affinity nerve growth factor receptor (Homo sapiens) | NOT MET
CN(Cc1cc(F)cc(F)c1)c1ccc2[nH]nc(/C=C/c3ccccn3)c2c1 | High affinity nerve growth factor receptor (Homo sapiens) | NOT MET
Fc1cc(F)cc(NCc2ccc3[nH]nc(/C=C/c4ccccn4)c3c2)c1 | High affinity nerve growth factor receptor (Homo sapiens) | NOT MET
Fc1cccc(CNc2ccc3[nH]nc(/C=C/c4ccccn4)c3c2)c1 | High affinity nerve growth factor receptor (Homo sapiens) | MET
Fc1cc(F)cc(COc2ccc3[nH]nc(/C=C/c4ccccn4)c3c2)c1 | High affinity nerve growth factor receptor (Homo sapiens) | NOT MET
O=C(Nc1ccc2[nH]nc(/C=C/c3ccccn3)c2c1)c1cc(F)cc(F)c1 | High affinity nerve growth factor receptor (Homo sapiens) | NOT MET
Fc1cc(F)cc(C#Cc2ccc3[nH]nc(/C=C/c4ccccn4)c3c2)c1 | High affinity nerve growth factor receptor (Homo sapiens) | NOT MET

----------
ASSAYED_SYSTEM: Tyrosine-protein kinase JAK2 (Homo sapiens, UniProt O60674)
Sequence (O60674 whole entry, the tested form may be a part): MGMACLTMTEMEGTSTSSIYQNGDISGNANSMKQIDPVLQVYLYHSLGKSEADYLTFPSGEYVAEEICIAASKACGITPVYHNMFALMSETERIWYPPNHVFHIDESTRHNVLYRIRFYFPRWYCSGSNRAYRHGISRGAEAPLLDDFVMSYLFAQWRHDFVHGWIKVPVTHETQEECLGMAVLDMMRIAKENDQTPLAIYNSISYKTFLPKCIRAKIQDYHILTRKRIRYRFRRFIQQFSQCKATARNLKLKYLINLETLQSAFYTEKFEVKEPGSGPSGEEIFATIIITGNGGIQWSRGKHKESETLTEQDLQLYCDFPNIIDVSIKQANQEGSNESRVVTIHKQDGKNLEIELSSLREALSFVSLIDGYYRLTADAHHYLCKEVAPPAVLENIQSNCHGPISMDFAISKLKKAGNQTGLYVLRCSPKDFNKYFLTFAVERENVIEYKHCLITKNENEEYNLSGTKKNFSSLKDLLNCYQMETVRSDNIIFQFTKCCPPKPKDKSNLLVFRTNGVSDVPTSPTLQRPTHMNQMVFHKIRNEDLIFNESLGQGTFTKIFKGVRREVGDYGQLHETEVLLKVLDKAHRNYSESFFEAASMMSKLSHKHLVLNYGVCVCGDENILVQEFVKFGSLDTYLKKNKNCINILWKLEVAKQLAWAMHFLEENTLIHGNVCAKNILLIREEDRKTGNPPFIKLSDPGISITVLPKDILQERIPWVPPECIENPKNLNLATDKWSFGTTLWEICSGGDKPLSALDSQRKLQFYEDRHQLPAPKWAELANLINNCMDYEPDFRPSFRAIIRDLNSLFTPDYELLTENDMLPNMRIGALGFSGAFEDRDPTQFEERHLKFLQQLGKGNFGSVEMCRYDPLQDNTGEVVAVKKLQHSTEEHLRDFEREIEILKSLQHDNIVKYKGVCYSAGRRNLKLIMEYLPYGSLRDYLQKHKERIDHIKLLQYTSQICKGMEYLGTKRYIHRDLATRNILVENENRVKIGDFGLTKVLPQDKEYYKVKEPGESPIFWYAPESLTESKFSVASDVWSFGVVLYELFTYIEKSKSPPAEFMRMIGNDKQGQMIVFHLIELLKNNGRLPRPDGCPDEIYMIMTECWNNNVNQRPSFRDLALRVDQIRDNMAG
ASSAY_SUMMARY: Binding affinity to wild-type human partial length JAK2 JH1 catalytic domain (A829 to G1132 residues) expressed in mammalian expression system by Kinomescan method relative to control

SMILES | Kd (nM)
C[C@@H](Nc1ccc2[nH]nc(/C=C/c3ccccn3)c2c1)c1cc(F)cc(F)c1 | 5.5

----------
Test system: BaF3
ASSAY_SUMMARY: Antiproliferative activity against mouse BaF3 cells assessed as cell viability measured after 72 hrs by Micro plate reader method
Format: functional, cell-based
CONDITION_DETAILS: BaF3, 72 h
pIC50: −log10 of the molar value.
Parameter: pIC50. Scope: all listed entries.

COMPOUND | RELATIONAL_OPERATOR | pIC50
C[C@@H](Nc1ccc2[nH]nc(/C=C/c3ccccn3)c2c1)c1cc(F)cc(F)c1 | = | 5.51
Fc1cc(F)cc(CNc2ccc3[nH]nc(/C=C/c4ccccn4)c3c2)c1 | = | 6.31
O=C(Nc1cnn2ccc(N3CCC[C@@H]3c3cc(F)ccc3F)nc12)N1CC[C@H](O)C1 [LAROTRECTINIB] | < | 5.00

----------
ASSAYED_SYSTEM: UniProt Q9UQB9
Sequence (Q9UQB9 whole entry): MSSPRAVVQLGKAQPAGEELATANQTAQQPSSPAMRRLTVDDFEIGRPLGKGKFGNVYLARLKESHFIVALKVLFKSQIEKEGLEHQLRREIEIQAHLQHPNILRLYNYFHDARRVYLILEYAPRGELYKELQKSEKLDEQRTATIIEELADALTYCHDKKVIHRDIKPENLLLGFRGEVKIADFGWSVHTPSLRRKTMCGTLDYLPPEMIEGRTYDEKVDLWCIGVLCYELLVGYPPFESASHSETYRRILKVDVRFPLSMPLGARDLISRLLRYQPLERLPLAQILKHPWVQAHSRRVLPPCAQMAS

SMILES | ASSAYED_SYSTEM | Kd [nM]
C[C@@H](Nc1ccc2[nH]nc(/C=C/c3ccccn3)c2c1)c1cc(F)cc(F)c1 | UniProt Q9UQB9 | 570

----------
ASSAY_SUMMARY: Half life in Sprague-Dawley rat at 10 mg/kg, po measured after 24 hrs by LC-MS/MS analysis
Assay type: ADME, organism-based
CONDITION_DETAILS: in vivo

SMILES | half-life
C[C@@H](Nc1ccc2[nH]nc(/C=C/c3ccccn3)c2c1)c1cc(F)cc(F)c1 | 1.13 h
